Conditions: male, Sprague-Dawley, rat, in vivo, po, 50 mg/kg, AUC0→t, Group A: control (0.5% CMC-Na), tepotinib 50 mg/kg oral, rat plasma, mean ± SD
property-measured: AUC(0-t) (ng·h/mL)
State the answer as a number, implicitly in ng·h/mL.

State the recorded AUC(0-t) for this entry: CN1CCC(COc2cnc(-c3cccc(Cn4nc(-c5cccc(C#N)c5)ccc4=O)c3)nc2)CC1
4600

====

Settings: male, Sprague-Dawley, rat, in vivo, po, 50 mg/kg, t1/2, Group A: control (0.5% CMC-Na), tepotinib 50 mg/kg oral, rat plasma, mean ± SD
property-measured: half-life
The answer consists of two parts: a number and, after it, its unit.

State the recorded half-life for this entry: CN1CCC(COc2cnc(-c3cccc(Cn4nc(-c5cccc(C#N)c5)ccc4=O)c3)nc2)CC1
9.4 h

====

Settings: male, Sprague-Dawley, rat, in vivo, po, 50 mg/kg, Cmax, Group A: control (0.5% CMC-Na), tepotinib 50 mg/kg oral, rat plasma, mean ± SD
property-measured: Cmax (ng/mL)
State the answer as a number, implicitly in ng/mL.

State the recorded Cmax for this entry: CN1CCC(COc2cnc(-c3cccc(Cn4nc(-c5cccc(C#N)c5)ccc4=O)c3)nc2)CC1
180

====

Conditions: male, Sprague-Dawley, rat, in vivo, po, 50 mg/kg, Tmax, Group A: control (0.5% CMC-Na), tepotinib 50 mg/kg oral, rat plasma, mean ± SD
property-measured: Tmax (h)
State the answer as a number, implicitly in h.

State the recorded Tmax for this entry: CN1CCC(COc2cnc(-c3cccc(Cn4nc(-c5cccc(C#N)c5)ccc4=O)c3)nc2)CC1
8.8

====

Conditions: male, Sprague-Dawley, rat, in vivo, po, 50 mg/kg, MRT0→t, Group A: control (0.5% CMC-Na), tepotinib 50 mg/kg oral, rat plasma, mean ± SD
property-measured: MRT last (h)
State the answer as a number, implicitly in h.

State the recorded MRT last for this entry: CN1CCC(COc2cnc(-c3cccc(Cn4nc(-c5cccc(C#N)c5)ccc4=O)c3)nc2)CC1
18.9

====

Conditions: male, Sprague-Dawley, rat, in vivo, po, 50 mg/kg, AUC0→∞, Group A: control (0.5% CMC-Na), tepotinib 50 mg/kg oral, rat plasma, mean ± SD
property-measured: AUC(0-inf) (ng·h/mL)
State the answer as a number, implicitly in ng·h/mL.

State the recorded AUC(0-inf) for this entry: CN1CCC(COc2cnc(-c3cccc(Cn4nc(-c5cccc(C#N)c5)ccc4=O)c3)nc2)CC1
4630
